assay: Pharmacokinetic study in scopolamine-induced amnesic rats (plasma); format: in vivo, Wistar rats; settings: Wistar, rat, other: intranasal, 2 mg/kg
metric name: AUC(0-inf) (ng·h/mL)

1. CCN(C)C(=O)Oc1cccc([C@H](C)N(C)C)c1 [INRSM, rivastigmine]; 330

---

experiment: Pharmacokinetic study in scopolamine-induced amnesic rats (plasma); assay type: in vivo, Wistar rats; settings: Wistar, rat, po
metric name: Tmax

1) CCN(C)C(=O)Oc1cccc([C@H](C)N(C)C)c1 [ORSM, rivastigmine]; 15 min

---

Test: Pharmacokinetic study in scopolamine-induced amnesic rats (plasma)
Format: in vivo, Wistar rats
Details: Wistar, rat, oral (ORSM), other: intranasal (INRSM)
Method: Samples were then centrifuged at 10,000 rpm for 5 min, and plasma was stored at − 70 °C until analysis. Briefly, to an aliquot of 100 µL of rat plasma, 10 µL of IS (1 µg/mL) was added and vortexed for 30 s. […] Plasma samples were analyzed by previously validated HPLC with fluorescence detection method (Arumugam [2011]). […] The pharmacokinetic parameters were calculated using non-compartmental analysis, PK solution 2.1software (Summit Research Services, Montrose, Colorado, USA). […]
metric name: half-life (min)

1. CCN(C)C(=O)Oc1cccc([C@H](C)N(C)C)c1 [INRSM, rivastigmine]; 30.5

---

assay: Pharmacokinetic study in scopolamine-induced amnesic rats (plasma); type: in vivo, Wistar rats; conditions: Wistar, rat, oral (ORSM), other: intranasal (INRSM)
metric name: k el (s⁻¹)

1. CCN(C)C(=O)Oc1cccc([C@H](C)N(C)C)c1; 0.000378

---

test: Pharmacokinetic study in scopolamine-induced amnesic rats (plasma); assay type: in vivo, Wistar rats; conditions: Wistar, rat, po, 2.5 mg/kg
metric name: AUC(0-inf) (ng·h/mL)

1. CCN(C)C(=O)Oc1cccc([C@H](C)N(C)C)c1 [ORSM, rivastigmine]; 27.7

---

assay: Pharmacokinetic study in scopolamine-induced amnesic rats (plasma); type: in vivo, Wistar rats; settings: Wistar, rat, oral, 2.5 mg/kg, read-out: clearance rate
metric name: clearance (mL/min)

1) CCN(C)C(=O)Oc1cccc([C@H](C)N(C)C)c1; 1500

---

assay: Pharmacokinetic study in scopolamine-induced amnesic rats (plasma); format: in vivo, Wistar rats; settings: Wistar, rat, po
metric name: k el (s⁻¹)

1. CCN(C)C(=O)Oc1cccc([C@H](C)N(C)C)c1; 0.000857

---

test: Pharmacokinetic study in scopolamine-induced amnesic rats (plasma); assay type: in vivo, Wistar rats; conditions: Wistar, rat, oral (ORSM), other: intranasal (INRSM)
metric name: Tmax (min)

1) CCN(C)C(=O)Oc1cccc([C@H](C)N(C)C)c1; 5

---

test: Pharmacokinetic study in scopolamine-induced amnesic rats (plasma); assay type: in vivo, Wistar rats; conditions: Wistar, rat, po
metric name: half-life (min)

1) CCN(C)C(=O)Oc1cccc([C@H](C)N(C)C)c1; 13.5

Reference for the values: paper PMC8298375
